Test: Half life in CD-1 mouse liver microsomes at 1 uM measured up to 60 mins in presence of NADPH by LC-MS/MS analysis
Attribute Measured: half-life at 1 h, 1 µM
Units required after the number.

Notebook: CC(=O)N1CCN(c2ccc(CN(C3CCC3)S(=O)(=O)Cc3ccccc3)cc2)CC1 , half-life at 1 h, 1 µM read as 2.3 min

----------
Target: Nuclear receptor ROR-gamma (Homo sapiens, UniProt P51449)
Sequence (P51449 whole entry, the tested form may be a part): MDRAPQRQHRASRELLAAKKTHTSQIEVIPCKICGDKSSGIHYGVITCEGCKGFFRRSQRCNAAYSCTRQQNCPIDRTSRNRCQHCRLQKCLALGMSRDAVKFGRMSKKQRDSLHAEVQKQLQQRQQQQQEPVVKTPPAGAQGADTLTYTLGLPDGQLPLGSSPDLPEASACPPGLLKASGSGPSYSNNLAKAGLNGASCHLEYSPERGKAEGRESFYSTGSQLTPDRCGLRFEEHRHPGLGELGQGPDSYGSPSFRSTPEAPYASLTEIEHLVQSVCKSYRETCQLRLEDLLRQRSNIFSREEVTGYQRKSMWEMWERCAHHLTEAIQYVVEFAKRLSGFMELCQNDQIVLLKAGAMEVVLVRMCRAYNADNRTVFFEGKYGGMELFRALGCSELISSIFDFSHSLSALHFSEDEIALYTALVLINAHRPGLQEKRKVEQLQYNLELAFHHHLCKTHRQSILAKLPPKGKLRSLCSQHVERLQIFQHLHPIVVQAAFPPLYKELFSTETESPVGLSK
Assay: Agonist activity at APC-labeled RORgammat LBD (unknown origin) incubated for 1 hr in presence of europium-labeled co-activator SRC1 by FRET assay
Attribute Measured: pEC50
Units for pEC50: none; it is -log10 of a concentration expressed in mol/L.

The reported pEC50 value, Nuclear receptor ROR-gamma (Homo sapiens, UniProt P51449), for CC(=O)N1CCN(c2ccc3c(c2)CCCN3S(=O)(=O)c2ccccc2)CC1 reads 5.32

----------
Biological target: Nuclear receptor ROR-gamma (Homo sapiens)
XC50 less than 300 nM is criterion met; XC50 greater than or equal to 300 nM is criterion not met.

// query Would you kindly verify if XC50 of CC(=O)N1CCN(c2ccc3c(c2)CCCN3S(=O)(=O)N(C)Cc2ccc(C(F)(F)F)cc2)CC1 is strictly less than 300 nM?
// result criterion not met

// query Would you kindly verify if XC50 of CC(=O)N1CCN(c2ccc3c(c2)CCCN3S(=O)(=O)N(C)Cc2ccccc2C)CC1 is strictly less than 300 nM?
// result criterion met

// query Would you kindly verify if XC50 of CC(=O)N1CCN(c2ccc3c(c2)CCCN3S(=O)(=O)CCc2ccccc2)CC1 is strictly less than 300 nM?
// result criterion not met

// query Would you kindly verify if XC50 of CC(=O)N1CCN(c2ccc3c(c2)CCCN3S(=O)(=O)N(C)CCCc2ccccc2)CC1 is strictly less than 300 nM?
// result criterion not met

// query Would you kindly verify if XC50 of CC(=O)N1CCN(c2ccc3c(c2)CCCN3S(=O)(=O)N(C)Cc2cccc(C)c2)CC1 is strictly less than 300 nM?
// result criterion not met

// query Would you kindly verify if XC50 of CC(=O)N1CCN(c2ccc3c(c2)CCCN3S(=O)(=O)N(C)CCc2ccccc2)CC1 is strictly less than 300 nM?
// result criterion not met

// query Would you kindly verify if XC50 of CC(=O)N1CCN(c2ccc3c(c2)CCCN3S(=O)(=O)N(C)Cc2cccc(Cl)c2)CC1 is strictly less than 300 nM?
// result criterion met

// query Would you kindly verify if XC50 of CC(=O)N1CCN(c2ccc3c(c2)CCCN3S(=O)(=O)N(C)Cc2cccc(F)c2)CC1 is strictly less than 300 nM?
// result criterion not met

// query Would you kindly verify if XC50 of CC(=O)N1CCN(c2ccc3c(c2)CCCN3S(=O)(=O)N(C)Cc2ccccc2Cl)CC1 is strictly less than 300 nM?
// result criterion met

Origin of measurements: ChEMBL document CHEMBL4706491
